Biological target: cyclin B/CDK1 enzyme (Homo sapiens, UniProt P06493)
Construct: purchased New England BioLabs; host or cells: Sf9 insect cells, recombinant baculovirus
Sequence (P06493 whole entry): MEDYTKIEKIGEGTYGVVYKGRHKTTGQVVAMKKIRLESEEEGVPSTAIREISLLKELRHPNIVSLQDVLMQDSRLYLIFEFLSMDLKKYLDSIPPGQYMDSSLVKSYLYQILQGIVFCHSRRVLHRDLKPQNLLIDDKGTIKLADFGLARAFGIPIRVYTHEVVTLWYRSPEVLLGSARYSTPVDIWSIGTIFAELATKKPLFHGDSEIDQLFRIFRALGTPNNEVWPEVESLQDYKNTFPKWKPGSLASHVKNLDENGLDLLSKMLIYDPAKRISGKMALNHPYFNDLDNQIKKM
Sequence (P14635 whole entry partner): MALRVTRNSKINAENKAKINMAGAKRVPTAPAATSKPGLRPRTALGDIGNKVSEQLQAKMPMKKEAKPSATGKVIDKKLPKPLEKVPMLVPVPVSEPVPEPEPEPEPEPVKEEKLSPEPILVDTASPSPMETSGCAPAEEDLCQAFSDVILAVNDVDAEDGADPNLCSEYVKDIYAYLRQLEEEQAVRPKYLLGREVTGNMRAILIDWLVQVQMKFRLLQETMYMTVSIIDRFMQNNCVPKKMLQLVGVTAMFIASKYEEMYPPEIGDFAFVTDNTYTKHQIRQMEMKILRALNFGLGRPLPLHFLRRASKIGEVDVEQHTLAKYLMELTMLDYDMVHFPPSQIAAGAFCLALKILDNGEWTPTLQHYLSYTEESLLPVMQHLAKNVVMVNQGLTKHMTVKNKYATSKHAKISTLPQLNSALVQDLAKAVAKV
Assay: CDK1 ELISA kinase assay (phospho-Rb ser 795 detection)
Type: biochemical
Settings: In Vitro Enzyme Assay, cyclin B/CDK1, read-out: CDK1 IC50
Listed here are compounds together with their documented pIC50.
Answer as the number alone; pIC50 is minus log10 of concentration in mol/L.

1. CN1CCN(c2ccc(NC=C3C(=O)NCc4cc(-c5cccs5)ccc43)cc2)CC1 [Example 848] | 4.35
2. NS(=O)(=O)c1ccc(CNC=C2C(=O)NC(=O)c3ccc(-c4cccc(F)c4)cc32)cc1 [Example 739] | 4.52
3. O=C1NC(=O)c2ccccc2C1=CNC(Cc1ccc(O)c(O)c1)C(=O)O (centres unmarked) [Example 567] | 4.75

# next compound below
For record O=C1NC(=O)c2ccc(-c3cccc(F)c3)cc2C1=CNCc1ccc(O)c(O)c1 [Example 768] the listed pIC50 is 4.69
